experiment: Tissue distribution in rats after oral administration; format: in vivo, male Sprague-Dawley rats; details: male, Sprague-Dawley, rat, duodenum lumen content, PO 25 mg/kg, 5 h, average, N = 3, read-out: Duod. Content concentration
measured metric: concentration at 5 h (ng/mL)
The answer is to be given in ng/mL; state only the numeric part.

Can you share its concentration at 5 h? I mean this compound: "CC(C)(O)CNC(=O)Cc1nc2cnc3[nH]ccc3c2n1[C@H]1CC[C@H](CC#N)CC1"
4470

====

test: Tissue distribution in rats after oral administration; assay type: in vivo, male Sprague-Dawley rats; conditions: male, Sprague-Dawley, rat, jejunum tissue, PO 25 mg/kg, 7 h, average, N = 3, read-out: Jejunum Tissue concentration
measured metric: concentration at 7 h (ng/g)
The answer is to be given in ng/g; state only the numeric part.

Can you share its concentration at 7 h? I mean this compound: "CC(C)(O)CNC(=O)Cc1nc2cnc3[nH]ccc3c2n1[C@H]1CC[C@H](CC#N)CC1"
788

====

test: Tissue distribution in mice after oral administration; assay type: in vivo, female C57Bl/6 mice; conditions: female, C57Bl/6, mouse, plasma, oral 10 mg/kg, 2 h, mean ± SD, read-out: Plasma concentration
measured metric: concentration at 2 h (ng/mL)
The answer is to be given in ng/mL; state only the numeric part.

Can you share its concentration at 2 h? I mean this molecule: "CC(C)(O)CNC(=O)Cc1nc2cnc3[nH]ccc3c2n1[C@H]1CC[C@H](CC#N)CC1"
2.3

====

assay: Tissue distribution in mice after oral administration; assay type: in vivo, female C57Bl/6 mice; conditions: female, C57Bl/6, mouse, ileum, oral 10 mg/kg, 2 h, mean ± SD, read-out: Ileum concentration
measured metric: concentration at 2 h (ng/g)
The answer is to be given in ng/g; state only the numeric part.

Can you share its concentration at 2 h? I mean this molecule: "CC(C)(O)CNC(=O)Cc1nc2cnc3[nH]ccc3c2n1[C@H]1CC[C@H](CC#N)CC1"
12000

====

experiment: Tissue distribution in rats after oral administration; format: in vivo, male Sprague-Dawley rats; details: male, Sprague-Dawley, rat, liver, PO 25 mg/kg, 0.5 h, average ±SD, read-out: Liver concentration
measured metric: concentration at 0.5 h (ng/g)
The answer is to be given in ng/g; state only the numeric part.

Can you share its concentration at 0.5 h? I mean this molecule: "CC(C)(O)CNC(=O)Cc1nc2cnc3[nH]ccc3c2n1[C@H]1CC[C@H](CC#N)CC1"
158

====

Experiment: Tissue distribution in rats after oral administration
Format: in vivo, male Sprague-Dawley rats
Settings: male, Sprague-Dawley, rat, liver, PO 25 mg/kg, 3 h, average ±SD, read-out: Liver concentration
Protocol: Preliminary tissue distribution studies were conducted in male Sprague-Dawley rats (N=3/time point) at 0.5, 1, 2, 3, 5, 7, and 24 hours following oral administration of compound of Formula I at a dose of 25 mg/kg. The following tissues were harvested for compound concentration analysis: liver, kidney, brain, muscle, epididymis fat, duodenum, jejunum, ileum, colon (both lumen content and tissue), and plasma. […]
measured metric: concentration at 3 h
Lab note: write values as number then unit, every time.

Can you share its concentration at 3 h? I mean this compound: "CC(C)(O)CNC(=O)Cc1nc2cnc3[nH]ccc3c2n1[C@H]1CC[C@H](CC#N)CC1"
29.6 ng/g

====

experiment: Tissue distribution in mice after oral administration; format: in vivo, female C57Bl/6 mice; conditions: female, C57Bl/6, mouse, ileum, oral 10 mg/kg, 1 h, mean ± SD, read-out: Ileum concentration
measured metric: concentration at 1 h (ng/g)
The answer is to be given in ng/g; state only the numeric part.

Can you share its concentration at 1 h? I mean this molecule: "CC(C)(O)CNC(=O)Cc1nc2cnc3[nH]ccc3c2n1[C@H]1CC[C@H](CC#N)CC1"
22700

====

assay: Tissue distribution in rats after oral administration; assay type: in vivo, male Sprague-Dawley rats; details: male, Sprague-Dawley, rat, colon tissue, PO 25 mg/kg, 7 h, average, N = 3, read-out: Colon Tissue concentration
measured metric: concentration at 7 h (ng/g)
The answer is to be given in ng/g; state only the numeric part.

Can you share its concentration at 7 h? I mean this compound: "CC(C)(O)CNC(=O)Cc1nc2cnc3[nH]ccc3c2n1[C@H]1CC[C@H](CC#N)CC1"
36700

====

assay: Tissue distribution in rats after oral administration; assay type: in vivo, male Sprague-Dawley rats; settings: male, Sprague-Dawley, rat, colon tissue, PO 25 mg/kg, 2 h, average, N = 3, read-out: Colon Tissue concentration
measured metric: concentration at 2 h (ng/g)
The answer is to be given in ng/g; state only the numeric part.

Can you share its concentration at 2 h? I mean this compound: "CC(C)(O)CNC(=O)Cc1nc2cnc3[nH]ccc3c2n1[C@H]1CC[C@H](CC#N)CC1"
2190

====

experiment: Serum and colon concentrations in explant studies SS-1 and SS-2; type: in vivo, C57BL/6 mice; settings: C57BL/6, mouse, colon, po, 5 mg/kg, SS-2; mice, 4 hours post oral dose 5 mg/kg; mean±SEM; read-out: Colon concentration
measured metric: concentration at 4 h (ng/g)
The answer is to be given in ng/g; state only the numeric part.

Can you share its concentration at 4 h? I mean this compound: CC(C)(O)CNC(=O)Cc1nc2cnc3[nH]ccc3c2n1[C@H]1CC[C@H](CC#N)CC1 [Compound of Formula I]
4670

====

Test: Tissue distribution in rats after oral administration
Type: in vivo, male Sprague-Dawley rats
Conditions: male, Sprague-Dawley, rat, duodenum tissue, PO 25 mg/kg, 7 h, average, N = 3, read-out: Duod. Tissue concentration
Experimental: Preliminary tissue distribution studies were conducted in male Sprague-Dawley rats (N=3/time point) at 0.5, 1, 2, 3, 5, 7, and 24 hours following oral administration of compound of Formula I at a dose of 25 mg/kg. The following tissues were harvested for compound concentration analysis: liver, kidney, brain, muscle, epididymis fat, duodenum, jejunum, ileum, colon (both lumen content and tissue), and plasma. […]
measured metric: concentration at 7 h (ng/g)
The answer is to be given in ng/g; state only the numeric part.

Can you share its concentration at 7 h? I mean this compound: CC(C)(O)CNC(=O)Cc1nc2cnc3[nH]ccc3c2n1[C@H]1CC[C@H](CC#N)CC1 [Compound of Formula I]
366

====

experiment: Tissue distribution in rats after oral administration; assay type: in vivo, male Sprague-Dawley rats; details: male, Sprague-Dawley, rat, jejunum lumen content, PO 25 mg/kg, 1 h, average, N = 3, read-out: Jejunum Content concentration
measured metric: concentration at 1 h (µg/mL)
The answer is to be given in µg/mL; state only the numeric part.

Can you share its concentration at 1 h? I mean this compound: CC(C)(O)CNC(=O)Cc1nc2cnc3[nH]ccc3c2n1[C@H]1CC[C@H](CC#N)CC1 [Compound of Formula I]
249

====

assay: Tissue distribution in rats after oral administration; type: in vivo, male Sprague-Dawley rats; conditions: male, Sprague-Dawley, rat, duodenum lumen content, PO 25 mg/kg, 2 h, average, N = 3, read-out: Duod. Content concentration
measured metric: concentration at 2 h (ng/mL)
The answer is to be given in ng/mL; state only the numeric part.

Can you share its concentration at 2 h? I mean this molecule: "CC(C)(O)CNC(=O)Cc1nc2cnc3[nH]ccc3c2n1[C@H]1CC[C@H](CC#N)CC1"
20200

====

assay: Tissue distribution in rats after oral administration; assay type: in vivo, male Sprague-Dawley rats; conditions: male, Sprague-Dawley, rat, liver, PO 25 mg/kg, 5 h, average ±SD, read-out: Liver concentration
measured metric: concentration at 5 h

Can you share its concentration at 5 h? I mean this molecule: CC(C)(O)CNC(=O)Cc1nc2cnc3[nH]ccc3c2n1[C@H]1CC[C@H](CC#N)CC1 [Compound of Formula I]
18.7 ng/g

====

test: Tissue distribution in rats after oral administration; type: in vivo, male Sprague-Dawley rats; settings: male, Sprague-Dawley, rat, colon tissue, PO 25 mg/kg, 1 h, average, N = 3, read-out: Colon Tissue concentration
measured metric: concentration at 1 h

Can you share its concentration at 1 h? I mean this molecule: "CC(C)(O)CNC(=O)Cc1nc2cnc3[nH]ccc3c2n1[C@H]1CC[C@H](CC#N)CC1"
383 ng/g

====

assay: Serum and colon concentrations in explant studies SS-1 and SS-2; assay type: in vivo, C57BL/6 mice; details: C57BL/6, mouse, colon, po, 5 mg/kg, SS-1; mice, 4 hours post oral dose 5 mg/kg; mean±SEM; read-out: Colon concentration
measured metric: concentration at 4 h (ng/g)
The answer is to be given in ng/g; state only the numeric part.

Can you share its concentration at 4 h? I mean this compound: "CC(C)(O)CNC(=O)Cc1nc2cnc3[nH]ccc3c2n1[C@H]1CC[C@H](CC#N)CC1"
4630
